TEST SYSTEM: T1, cynomolgus serum albumin (cynomolgus)
T1 construct: Purified from serum; also called CSA
T1 sequence (A2V9Z4 25-608): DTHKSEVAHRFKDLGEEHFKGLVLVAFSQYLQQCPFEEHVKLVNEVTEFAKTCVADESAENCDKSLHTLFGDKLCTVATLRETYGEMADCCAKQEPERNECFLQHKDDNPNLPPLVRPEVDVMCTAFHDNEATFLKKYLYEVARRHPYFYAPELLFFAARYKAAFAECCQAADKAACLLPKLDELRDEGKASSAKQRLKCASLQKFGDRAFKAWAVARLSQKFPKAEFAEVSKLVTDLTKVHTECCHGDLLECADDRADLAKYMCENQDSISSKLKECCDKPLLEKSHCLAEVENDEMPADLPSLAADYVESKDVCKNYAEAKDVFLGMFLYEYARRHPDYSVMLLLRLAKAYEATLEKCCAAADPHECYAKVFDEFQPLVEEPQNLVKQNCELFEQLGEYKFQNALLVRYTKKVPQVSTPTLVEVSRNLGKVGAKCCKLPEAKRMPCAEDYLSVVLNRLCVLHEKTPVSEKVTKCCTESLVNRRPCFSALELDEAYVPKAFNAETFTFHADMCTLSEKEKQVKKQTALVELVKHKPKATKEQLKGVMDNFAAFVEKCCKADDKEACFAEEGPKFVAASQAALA
ASSAY PROTOCOL: SPR Biacore2000, albumin immobilized on CM-5, polypeptide as analyte, relative KD
MEASUREMENT LABEL: Kd (pM)
Provide only the numeric value, understood in pM.

>>> reported("GSSLAEAKEAANAELDSYGVSDFYKRLIDKAKTVEGVEALKDAILAALP (designed binder, single Arg at position 23 of the 46-mer; GSS extension at the N-terminus; also called ABD variant; control) [PEP07843]")
9.8

Let us move to another entry and its Kd.
input: // lookup Kd for GSSLAEAKEAANAELDSYGVSDFYKKLIDKAKTVEGVEALKDAILAALP (designed binder, Inventive variant; 46 residues with an N-terminal GSS extension; R23K against PEP07843 (position counted on the 46-mer without GSS); Expressed in E. coli; also called ABD variant; R23K variant of PEP07843) [PEP12380]
output: 11
